This collection of values is drawn from ChEMBL document CHEMBL3988442.

Biological target: AMP-activated protein kinase, AMPK (Homo sapiens) (UniProt P54646+O43741+P54619+Q9UGJ0+Q9Y478+Q13131+Q9UGI9)
Test: AMP-dependent Kinase enzyme assay. An in vitro enzyme assay that detects ADP turnover that is directly proportional to AMPK activity. This uses naive AMPK that is activated during the assay with MK-8722
Type: functional
Parameters: scale not given: direction of the effect not stated beside the values
Conditions: 30 µM
endpointLabel: Percent Effect (%)
State just the number; it will be interpreted in %.

Use the examples below as a reference point.
1) CC(C)c1cc(C2CCN(C(=O)Cn3cnnn3)CC2)[nH]n1	12.8
2) O=C(c1ccc2[nH]cnc2c1)N1CCC(Oc2ccccn2)CC1	3.35
3) Cc1ncn(CCNC(=O)Nc2ccc(F)c(Cl)c2)c(=O)c1C	2.03

Ask: Supply recorded Percent Effect for CCSCc1cccc(NCc2cccnc2)c1 here.
Result: 5.73

Ask: Supply recorded Percent Effect for COc1cccc(C(C(=O)O)N2CCSCC2)c1F (stereo unspecified) here.
Result: -1.18

Ask: Supply recorded Percent Effect for O=C(NC1CCCCC1)N1CCC(n2cc(-c3ccccn3)nn2)CC1 here.
Result: -1.68

====

Molecular target: AMP-activated protein kinase, AMPK (Homo sapiens) (UniProt P54646+O43741+P54619+Q9UGJ0+Q9Y478+Q13131+Q9UGI9)
Assay: AMP-dependent Kinase enzyme assay. An in vitro enzyme assay that detects ADP turnover that is directly proportional to AMPK activity. This uses naive AMPK that is activated during the assay with MK-8722
Format: functional
Set-up: scale not given: direction of the effect not stated beside the values
Conditions: 30 µM
In this section, each of the compounds is paired with its reported Percent Effect.

Use the examples below as a reference point.
1) COc1ccc(CN(C)C(=O)CN2CC(n3cccn3)C2)cc1F	-4.28%
2) CN(C)C(C(=O)N1CCN(CCn2cccc2)CC1)c1ccc(F)cc1 (stereo unspecified)	-8.31%
3) Cc1cccc(C(C(=O)NC(C)(C)CN2CCOCC2)N(C)C)c1 (stereo unspecified)	-14.1%
4) CCN1CC2(CCN(CC3CCCO3)CC2)OC1=O (stereo unspecified)	-9.49%

Ask: Supply recorded Percent Effect for Cc1cc(NC(=O)N2CCC[C@@H]2CO)nn1-c1cccc(Cl)c1 here.
Result: -3.24%

Ask: Supply recorded Percent Effect for N#Cc1ccc(SCCC(=O)O)cc1 here.
Result: 6.5%

====

In this section, each of the molecules is paired with its reported Percent Effect.
Target: AMP-activated protein kinase, AMPK (Homo sapiens) (UniProt P54646+O43741+P54619+Q9UGJ0+Q9Y478+Q13131+Q9UGI9)
Test: AMP-dependent Kinase enzyme assay. An in vitro enzyme assay that detects ADP turnover that is directly proportional to AMPK activity. This uses naive AMPK that is activated during the assay with MK-8722
Format: functional
Set-up: scale not given: direction of the effect not stated beside the values
Conditions: 30 µM
State just the number; it will be interpreted in %.

Use the examples below as a reference point.
1. COC(=O)CSCc1noc(-c2ccc(C)cc2)n1	-5.29
2. CC1(C)CN(Cc2ccncc2)CCS1(=O)=O	-9.12
3. O=C(Nc1ccc(-n2ccc(C(=O)O)n2)cc1)c1ccccc1	4.07
4. CN(CCNC(=O)Nc1cnn(C)c1)Cc1ccc(F)cc1	0.603
5. CN(C)c1ncccc1CNC(=O)CCNc1ncccn1	-6.85

Ask: Supply recorded Percent Effect for CCn1cnnc1CCNc1nc(C)cc(C)c1C#N here.
Result: -7.29

Ask: Supply recorded Percent Effect for COc1ccc(CN2CC(n3cccn3)C2)cc1F here.
Result: -6.94

====

Target: Arginase-2, mitochondrial (Homo sapiens) (UniProt P78540)
Sequence (P78540 whole entry): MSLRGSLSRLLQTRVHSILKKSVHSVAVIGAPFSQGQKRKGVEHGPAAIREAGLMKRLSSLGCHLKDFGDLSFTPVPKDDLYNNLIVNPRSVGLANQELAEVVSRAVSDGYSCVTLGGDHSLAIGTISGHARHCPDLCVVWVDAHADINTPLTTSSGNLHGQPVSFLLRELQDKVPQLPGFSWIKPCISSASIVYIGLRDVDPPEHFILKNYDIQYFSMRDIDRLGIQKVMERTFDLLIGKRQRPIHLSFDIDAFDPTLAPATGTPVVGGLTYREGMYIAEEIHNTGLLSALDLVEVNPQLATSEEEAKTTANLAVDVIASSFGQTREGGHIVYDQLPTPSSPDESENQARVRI
Test: in vitro enzyme assay to detect the production of urea directly proportional to the activity of Arginase II; note: in the data most compounds retested in dose-response had high values
Assay type: functional
Set-up: scale not given: direction of the effect not stated beside the values
Details: 30 µM
endpointLabel: Percent Effect (%)
State just the number; it will be interpreted in %.

Use the examples below as a reference point.
1. Cn1cc(CN2C[C@@H]3COC[C@]3(C(=O)NCCc3ccccc3)C2)cn1	12.4
2. COc1ncccc1CNC(=O)N(Cc1ccccc1F)C1CC1	5.95
3. CC(C)N(C)C(=O)c1coc(CN2CCN(c3ccccc3F)CC2)n1	7.03
4. Cc1cc(F)c(C(C(=O)O)N2CCN(Cc3ccccn3)CC2)cc1Cl (stereo unspecified)	5.95
5. COc1ccc(C(=O)N2C[C@@H](C(=O)O)[C@H](c3ccccc3)C2)c(O)c1	9.19

Ask: Supply recorded Percent Effect for OC(CN(Cc1ccccc1)Cc1cccnc1)c1cccs1 (stereo unspecified) here.
Result: -5.95

Ask: Supply recorded Percent Effect for Cc1nsc(N2CCCN(C(=O)NCc3cc(C)on3)CC2)n1 here.
Result: 8.11

Ask: Supply recorded Percent Effect for CCCNC(=O)c1cc(Br)c2c(c1)OCCO2 here.
Result: 5.95

====

Target: Tyrosyl-tRNA synthetase, putative (Trypanosoma cruzi (strain CL Brener)) (UniProt Q4DSP6)
Sequence (whole entry): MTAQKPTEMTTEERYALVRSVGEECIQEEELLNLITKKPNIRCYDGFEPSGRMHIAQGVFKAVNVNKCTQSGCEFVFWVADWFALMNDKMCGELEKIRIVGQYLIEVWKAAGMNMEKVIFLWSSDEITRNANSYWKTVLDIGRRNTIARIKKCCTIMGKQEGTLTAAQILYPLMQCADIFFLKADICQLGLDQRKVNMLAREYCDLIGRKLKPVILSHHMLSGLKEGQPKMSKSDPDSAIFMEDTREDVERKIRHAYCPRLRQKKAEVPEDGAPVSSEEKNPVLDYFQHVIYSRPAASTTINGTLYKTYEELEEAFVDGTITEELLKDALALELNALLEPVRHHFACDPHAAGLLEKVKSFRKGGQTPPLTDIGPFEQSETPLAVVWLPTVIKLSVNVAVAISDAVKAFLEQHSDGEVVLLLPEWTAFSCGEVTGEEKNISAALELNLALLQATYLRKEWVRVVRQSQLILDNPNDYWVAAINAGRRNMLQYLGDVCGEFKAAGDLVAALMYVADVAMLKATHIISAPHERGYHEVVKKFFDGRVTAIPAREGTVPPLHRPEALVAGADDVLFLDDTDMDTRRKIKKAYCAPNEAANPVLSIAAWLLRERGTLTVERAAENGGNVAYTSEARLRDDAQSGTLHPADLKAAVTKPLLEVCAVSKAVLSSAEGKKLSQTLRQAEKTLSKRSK
Experiment: Trypanosoma cruzi tyrosyl tRNA synthetase (TcYRS) _High Tyrosine SOP; note: in the data most compounds retested in dose-response had high values
Type: functional
Parameters: scale not given: direction of the effect not stated beside the values
Conditions: 30 µM
endpointLabel: Percent Effect (%)
State just the number; it will be interpreted in %.

Use the examples below as a reference point.
1) COc1ccc(CN2C[C@@H]3COC[C@]3(CN(C)C)C2)cc1	4.74
2) CCC(O)CN1CCN(C(=O)c2sccc2OC)CC1 (centres undefined)	3.92
3) CC(C)(C)c1n[nH]c(C2CN(C(=O)c3ccsc3)CCO2)n1 (centres undefined)	2.39
4) Cc1ccoc1-c1nnc(CN2CCn3c(nnc3C3CC3)C2)o1	-1.58
5) CN(C)C(=O)N1C[C@H]2CCC[C@@]2(COc2ccccn2)C1	-0.526
6) Cc1nn(C)c(N(C)C)c1CNC(C)COc1cccc(F)c1 (centres undefined)	-3.92

Ask: Supply recorded Percent Effect for Cc1ccc(C(=O)NCCNc2ncccc2C#N)c(=O)[nH]1 here.
Result: 6.86

Ask: Supply recorded Percent Effect for O=C(NCC(=O)N1CCCCC1)c1ccoc1 here.
Result: 4.9

Ask: Supply recorded Percent Effect for CC1(C)OCC(CNC(=O)c2cnn(-c3cc(Cl)ccc3Cl)c2N)O1 (centres undefined) here.
Result: 0

Ask: Supply recorded Percent Effect for CCNc1cc2c(nn1)CCN(C(=O)c1cc3nc(C)ccc3o1)C2 here.
Result: 5.79

Ask: Supply recorded Percent Effect for CCc1nc(C2CCCN2CCn2cncn2)no1 (centres undefined) here.
Result: 1.96

Ask: Supply recorded Percent Effect for COc1ccc(CC(=O)N2CCc3nnc(N(C)C)cc3C2)cc1F here.
Result: 5.26

Ask: Supply recorded Percent Effect for Cc1ncoc1C(=O)N1CCn2c(COCC3CC3)cnc2C1C (centres undefined) here.
Result: 7.89

Ask: Supply recorded Percent Effect for O=C(CSC1CCc2ccccc2NC1=O)NCCc1ccco1 (centres undefined) here.
Result: 3.72

====

Molecular target: Tyrosyl-tRNA synthetase, putative (Trypanosoma cruzi (strain CL Brener)) (UniProt Q4DSP6)
Experiment: Trypanosoma cruzi tyrosyl tRNA synthetase (TcYRS) SOP
Type: functional
Parameters: scale not given: direction of the effect not stated beside the values
Conditions: 30 µM
Record yes (1) whenever Percent Effect is at 10% or higher; record no (0) when lower.

Look over these answered cases.
1) COCCc1noc(CNC2CCSC2)n1 (stereo not drawn)	yes (1)
2) O=C(c1cc(C2CC2)[nH]n1)N1CCCC(n2cncn2)C1 (stereo not drawn)	yes (1)
3) COc1cc(N2CCCC(c3nccn3Cc3cscn3)C2)nc(N)n1 (stereo not drawn)	yes (1)

Ask: State whether the measured Percent Effect reaches 10%, counting equality as reaching it, for Cc1nc(CN(C)C2CCN(Cc3ccc4ccccc4n3)C2)no1 (stereo not drawn)
Result: yes (1)

Ask: State whether the measured Percent Effect reaches 10%, counting equality as reaching it, for COc1ccc(CN2CCC[C@@H]3CN(C(=O)c4ccco4)C[C@@H]32)cc1
Result: yes (1)
